B1: glmS ribozyme (parent)
chain: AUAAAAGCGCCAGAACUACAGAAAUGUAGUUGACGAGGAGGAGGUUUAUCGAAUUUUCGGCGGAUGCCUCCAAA

# Variants of: B1
# test_protocol: kcat; higher = faster cleavage; RNA array
# applied_conditions: with glucosamine-6-phosphate
Variants at the floor of the assay were thinned out.
# binarize kcat: threshold 0.001 s⁻¹ inclusive, high side met, low side not met

# alteration, class_name
measured = [
    ("U30C G62A", "not met"),
    ("A12G G51C", "not met"),
]

Determine whether this variant has kcat no lower than 0.001 s⁻¹: A52G U69G
not met

Determine whether this variant has kcat no lower than 0.001 s⁻¹: A14U G41U
not met

Determine whether this variant has kcat no lower than 0.001 s⁻¹: G62U C67A
not met

Determine whether this variant has kcat no lower than 0.001 s⁻¹: U57G C68A
not met

Determine whether this variant has kcat no lower than 0.001 s⁻¹: U30G U54C
met

Determine whether this variant has kcat no lower than 0.001 s⁻¹: G41C A52U
not met

Determine whether this variant has kcat no lower than 0.001 s⁻¹: C16A C67A
not met

Determine whether this variant has kcat no lower than 0.001 s⁻¹: G32A C34U
not met

Determine whether this variant has kcat no lower than 0.001 s⁻¹: G32U A33C
not met

Determine whether this variant has kcat no lower than 0.001 s⁻¹: U31C G63U
not met

Determine whether this variant has kcat no lower than 0.001 s⁻¹: U31A G59A
not met

Determine whether this variant has kcat no lower than 0.001 s⁻¹: G37U U65G
not met

Determine whether this variant has kcat no lower than 0.001 s⁻¹: U55G A64U
not met

Determine whether this variant has kcat no lower than 0.001 s⁻¹: C16U G37U G51C
not met

Determine whether this variant has kcat no lower than 0.001 s⁻¹: U49G C71A
not met

Determine whether this variant has kcat no lower than 0.001 s⁻¹: A33U C61U
not met
